- TEST SUMMARY: Primary qHTS for inhibitors of nuclear receptor binding SET domain protein 2 (NSD2) in an RCH-ACV wild type WT cells (2C) (AID 1645877); further: nearly all actives have a fitted effect of over 70% in size; further: potency means the concentration at half of the fitted maximal effect
- CONDITION PARAMETERS: RCH-ACV (leukaemia line) NSD2 WT (2C) viability, CellTiter-Glo, 72 h; series mostly up to 44.9 µM
Records with an inconclusive call do not appear. The source made the active and inactive calls. The call rests on the fitted dose curve; in most records, active means well fitted inhibition curve with a large enough effect; inconclusive means small, poorly fitted or top-dose-only effect; inactive means no such curve, though single readings can be large or run the other way.

COMPOUND | Potency
COc1ccc(-n2cnc3cc(C(=O)N4CCCCC4)ccc32)cc1 | inactive
COc1cc2c3c(n(CCCn4ccnc4)c(=O)c2cc1OC)-c1cc2c(cc1C3=O)OCO2 | 13.2 nM (active)
COc1cc(C(N)=O)ccc1NC(=O)[C@@H]1N[C@@H](CC(C)(C)C)[C@@]2(C(=O)Nc3cc(Cl)ccc32)[C@H]1c1cccc(Cl)c1F | 93.4 nM (active)
C=CC(=O)N1CC/C(=C\c2ccc(F)c([N+](=O)[O-])c2)C(=O)/C(=C/c2ccc(F)c([N+](=O)[O-])c2)C1 | 59 nM (active)
CN1C(=O)N[C@H](Cc2c[nH]c3c(Cl)cccc23)C1=O | inactive
CN1CCN(C(=O)c2ccc(-c3ccc4c(C=O)c(O)ccc4c3)s2)CC1 | inactive
CCOc1ccc(-n2c([C@@H](C)N(Cc3cccnc3)C(=O)Cc3ccc(F)c(C(F)(F)F)c3)nc3ncccc3c2=O)cc1 | 18600 nM (active)
C=CCNC1=C2CC(C)CC(OC)C(O)C(C)/C=C(\C)C(OC(N)=O)C(OC)/C=C/C=C(\C)C(=O)NC(=CC1=O)C2=O (stereo not drawn) | 1320 nM (active)
CC(C)c1c(-c2ccccc2)nc2c(C#N)c[nH]n2c1=O | inactive
CCN(C(=O)c1ccccc1OC)c1cc2c(cc1N1CCNC[C@H]1C)n(C)c(=O)n2C | inactive
C[C@]12CCC3[C@@H](CC[C@H]4NC(=O)C=C[C@]34C)[C@@H]1CC[C@@H]2C(=O)Nc1cc(C(F)(F)F)ccc1C(F)(F)F (stereo partly drawn) | inactive
C[C@H](NC(=O)[C@H]1NCC[C@@H]1O)c1ccc(-c2noc(CCC3CCCC3)n2)cc1 | inactive
Cc1nnn(C)c1-c1cnc2c3ccc(C(C)(C)O)cc3n([C@H](c3ccccc3)C3CCOCC3)c2c1 | 9.3 nM (active)
NCC(=O)Nc1cncc(-c2nn3c(=O)cc(N4CCNCC4)nc3s2)c1 | inactive
COc1cc(-c2cn(C)c(=O)c3cnccc23)c(OC)cc1CN(C)C | 8330 nM (active)
C=CC(=O)N1CCC[C@H](n2c(=O)n(-c3ccc(Oc4ccccc4)cc3)c3c(N)ncnc32)C1 | 2090 nM (active)
COc1cc2c3c(n(CCCNCCO)c(=O)c2cc1OC)-c1cc2c(cc1C3=O)OCO2 | 29.5 nM (active)
CN(C)CCNC(=O)NC[C@H]1CC[C@@H]2[C@H](O1)c1cc(C(F)(F)F)ccc1N[C@H]2c1ccccc1 | 417 nM (active)
